Target: hNET (Homo sapiens, UniProt P23975)
Construct: expressed in transfected cells
Sequence (P23975 whole entry): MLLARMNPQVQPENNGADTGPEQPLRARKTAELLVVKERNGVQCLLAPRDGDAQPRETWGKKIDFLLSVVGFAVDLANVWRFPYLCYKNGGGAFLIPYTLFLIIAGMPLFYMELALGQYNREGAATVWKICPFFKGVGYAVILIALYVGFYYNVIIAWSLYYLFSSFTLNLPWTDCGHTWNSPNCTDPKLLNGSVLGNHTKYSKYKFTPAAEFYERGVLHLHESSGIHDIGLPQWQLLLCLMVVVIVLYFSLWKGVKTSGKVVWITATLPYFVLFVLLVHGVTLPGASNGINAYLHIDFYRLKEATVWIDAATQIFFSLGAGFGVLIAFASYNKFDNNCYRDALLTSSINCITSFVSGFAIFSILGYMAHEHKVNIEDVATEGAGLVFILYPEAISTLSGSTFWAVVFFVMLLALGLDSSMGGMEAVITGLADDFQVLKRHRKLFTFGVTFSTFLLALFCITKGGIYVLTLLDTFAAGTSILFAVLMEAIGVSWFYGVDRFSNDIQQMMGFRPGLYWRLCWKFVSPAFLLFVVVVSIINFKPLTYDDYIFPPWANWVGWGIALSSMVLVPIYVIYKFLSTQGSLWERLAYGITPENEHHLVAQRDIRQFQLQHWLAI
Assay: Norepinephrine (NE) uptake assay in MDCK-Net6 cells stably transfected with human hNET
Format: cell-based
Conditions: MDCK-Net6, 1 μM test compound, [3H]NE uptake
Counter-ions that a name gives are not always drawn.
Parameter class (string): assigned from measured inhibition at 1 µM. Ranges: group 1: < 70%; group 2: ≥ 70% and < 90%; group 3: ≥ 90%

- COc1cc(C(CN2CCC(N(C)C)CC2)C2(O)CCCCC2)ccc1OCc1ccccc1 (stereo not drawn) [Example 451, dihydrochloride]: group 2

For this compound, which bin applies? CN(C)C1CCN(CC(c2cccc(Br)c2)C2(O)CCCCC2)CC1 (stereo not drawn) [Example 319, dihydrochloride]
group 3

For this compound, which bin applies? CN[C@@H]1CCN(CC(c2ccc(OCc3ccccc3)c(Cl)c2)C2(O)CCCCC2)C1 (stereo partly drawn) [Example 385, dihydrochloride]
group 1

For this compound, which bin applies? CN(C)C1CCN(CC(c2cccc(Cl)c2)C2CCCC2)CC1 (stereo not drawn) [Example 229, dihydrochloride]
group 2

For this compound, which bin applies? NC1CCN(CC(c2cccc(Cl)c2)C2(O)CCCCC2)CC1 (stereo not drawn) [Example 35, dihydrochloride]
group 1

For this compound, which bin applies? OC1(C(CN2CCC(N3CCCC3)CC2)c2cccc(Oc3ccccc3)c2)CCCCC1 (stereo not drawn) [Example 316, dihydrochloride]
group 1
